Experimental Target: human serum albumin (human) (UniProt P02768)
Sequence (P02768 25-609 limits assumed): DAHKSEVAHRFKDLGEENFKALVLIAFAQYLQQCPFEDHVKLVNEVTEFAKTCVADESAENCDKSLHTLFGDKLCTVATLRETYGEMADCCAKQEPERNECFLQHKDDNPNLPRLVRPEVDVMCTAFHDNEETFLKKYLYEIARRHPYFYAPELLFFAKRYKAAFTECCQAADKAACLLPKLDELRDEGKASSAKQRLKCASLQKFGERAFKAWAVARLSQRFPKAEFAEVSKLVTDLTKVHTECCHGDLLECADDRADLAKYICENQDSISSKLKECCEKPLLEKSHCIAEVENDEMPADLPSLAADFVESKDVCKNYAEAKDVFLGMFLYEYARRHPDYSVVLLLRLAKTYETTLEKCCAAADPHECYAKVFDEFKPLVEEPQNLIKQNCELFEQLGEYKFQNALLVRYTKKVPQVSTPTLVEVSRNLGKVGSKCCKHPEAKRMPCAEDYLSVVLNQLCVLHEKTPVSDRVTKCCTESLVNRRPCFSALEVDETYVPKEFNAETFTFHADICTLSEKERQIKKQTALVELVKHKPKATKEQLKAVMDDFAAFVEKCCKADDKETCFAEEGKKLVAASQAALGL
Protocol Summary: solution ELISA screen (luminescence)
Measurement Name: RLU (RLU)

1. SEQ ID NO 242 (designed binder, not shown: small tags and cut ends) MLPAPKNLVVSRVTEDSARLSWTAPDAAFDSFYIAYAEPRPDGEAIQLLVPGSERSYDLTGLKPGTEYSVLIHGVKGGLLSSPLYAAFTT
2. SEQ ID NO 270 (designed binder, not shown: small tags and cut ends) MLPAPKNLVVSRVTEDSARLSWTAPDAAFDSFAIEYCETKMCGEAIVLTVPGSERSYDLTGLKPGTEYRVPIPGVKGGTASLPLSAIFTT
Inquiry: // pick larger RLU from pair: 1 vs 2 To answer, give the label that identifies your chosen option.
Reply text: 2
